- TEST_NAME: qHTS assay to identify small molecule antagonists of the estrogen related receptor (ERR) signaling pathway - cell viability counter screen (AID 1224818);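 also: viability measured after 17.5 h of compound exposure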
- RECORDED_CONDITIONS: ERR reporter cell line viability counter screen; series mostly up to 46.1 µM
Inconclusive results are not listed. The source made the active and inactive calls. Calls follow the shape of the dose curve; as a rule, active = well fitted cell-killing curve with a large enough effect in the repeat runs; inconclusive = weak or mixed curves; inactive = flat fitted curve, though single readings scatter.
Assign a class; possible classes are active, inactive

MOLECULE: COc1cc(/C=C(\C#N)C(=O)c2ccc(O)c(O)c2)cc(I)c1O
LABEL_CLASS: inactive
--
MOLECULE: CNc1ncnc2c1ncn2[C@@H]1O[C@H](CO)C(O)[C@H]1O (stereo partly specified)
LABEL_CLASS: inactive
--
MOLECULE: c1ccc(C2CN3CCSC3=N2)cc1 (stereo unspecified)
LABEL_CLASS: inactive

INPUT: State the result this test recorded for `N[C@@H](Cc1ccc(O)c(I)c1)C(=O)O` .
OUTPUT: inactive

INPUT: State the result this test recorded for `CCCN(CC1CC1)c1nc(C)nc(Nc2c(Cl)cc(Cl)cc2Cl)c1Cl` .
OUTPUT: inactive

INPUT: State the result this test recorded for `CN(C)C(N)=NCCC[C@H](N)C(=O)O` .
OUTPUT: inactive
